Compiled record: pIC50 values for Tyrosine-protein kinase JAK2 (Homo sapiens) across several sources.
pIC50: −log10 of the molar value.

Task: Provide pIC50, recorded with Tyrosine-protein kinase JAK2 (Homo sapiens), of CCS(=O)(=O)N1CC(CC#N)(n2cc(-c3nc(Nc4ccc(C#N)nc4)nc4ccsc34)cn2)C1
Output: > 7.30

Task: Please look at O=C1NCCCCOCc2cc(ccc2OC2CC2)Nc2nccc(n2)-c2ccc1cc2[N+](=O)[O-] and tell me its recorded pIC50 on Tyrosine-protein kinase JAK2 (Homo sapiens).
Output: 5.00 to 6.00

Task: Fetch value of pIC50 on Tyrosine-protein kinase JAK2 (Homo sapiens) for COc1cc(Nc2ncnc(-c3ccc(O[C@H]4CCN(C(=O)CO)C[C@H]4F)c(C#N)c3)n2)ccc1N1CCN(C)C[C@@H]1C .
Output: 7.31

Task: Write down measured pIC50 (Tyrosine-protein kinase JAK2 (Homo sapiens)) for this compound. CCN1CCN(Cc2cc(NC(=O)c3cc(-c4ccc5nc(NC(=O)C6CC6)cn5n4)c(C)cc3F)cc(C(F)(F)F)c2)CC1
Output: 6.03

Task: Report pIC50 under test system Tyrosine-protein kinase JAK2 (Homo sapiens) for N#CCC1(n2cc(-c3ncnc4[nH]ccc34)cn2)CN(C2CCN(C(=O)c3cc(Cl)cc(Cl)c3)CC2)C1 .
Output: ≥ 8.00

Task: Fill: pIC50 (Tyrosine-protein kinase JAK2 (Homo sapiens)) for this compound CCS(=O)(=O)N1CC(CC#N)(n2cc(-c3nc(Nc4ccc(OCCN5CCOCC5)cc4)nc4ccsc34)cn2)C1
Output: > 7.30

Task: Please respond with reported pIC50 (system Tyrosine-protein kinase JAK2 (Homo sapiens)) for N#CCC1(n2cc(-c3ncnc4[nH]ccc34)cn2)CN(c2cc(F)c(C(=O)NCC(F)F)cc2F)C1 .
Output: ≥ 8.00
